measurement.target: T1, PCSK9 D374Y mutant protein inserted with biotin receiving peptide BP15 and His-tag: PCSK9-D374Y-BP15-His6 (human, UniProt Q8NBP7 153-692; A8T644 31-152, biotin on the BP15 biotin receiving peptide)
T1 construct: also called PCSK9-Y; mutant PCSK9
test.method.notes: ELISA, biotin PCSK9-Y on streptavidin plate
value.kind: EC50 (µg/mL)
# number only, unit µg/mL dropped from output

Task: Give EC50 for the following binder: h011-3065 (antibody, V domains shown) VH: QVQLVQSGAEVKKPGASVKVSCKASGYTFTGYDIHWVRQAPGQGLEWMGYINPSSTYTKFNQKFKDRVTMTRDTSISTAYMELSRLRSDDTAVYYCARERIYSNYWFFDVWGQGTTVTVSS VL: DIVMTQSPSSLSASVGDRVTITCKASQNVYTAVAWYQQKPGKSPKLLIYSASNRYTGVPSRFSGSGSGTDFTLTISSLQPEDFATYFCQQYSSYPYTFGGGTKVEIK
Result: 0.0109

Measured values drawn from patent US20200270365A1 for this set.
